ASSAYED_TARGET: UniProt:P25090
Sequence (P25090 1-351): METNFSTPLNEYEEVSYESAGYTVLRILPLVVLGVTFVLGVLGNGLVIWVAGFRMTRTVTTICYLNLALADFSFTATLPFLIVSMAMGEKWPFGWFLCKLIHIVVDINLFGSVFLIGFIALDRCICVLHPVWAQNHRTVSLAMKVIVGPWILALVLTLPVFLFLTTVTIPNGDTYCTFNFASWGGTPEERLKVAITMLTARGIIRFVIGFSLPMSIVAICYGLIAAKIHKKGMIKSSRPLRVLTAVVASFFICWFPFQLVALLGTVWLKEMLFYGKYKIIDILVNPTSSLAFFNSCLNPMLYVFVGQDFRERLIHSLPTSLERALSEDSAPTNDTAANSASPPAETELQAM
TEST_PROTOCOL: Intracellular calcium measurements (FLIPR), agonistic activity in HEK293-hALXR-Gα16 cells
CONDITION_PARAMETERS: Fluo-4 calcium FLIPR, normalized to WKYMVm 10 nM
PARAMETER: pEC50
Lab note: report pEC50 as minus log10 of the concentration in molar units, number only.

Some solved entries appear below for comparison.
Note pEC50 for the compound shown: O=C(NCCO)[C@H]1[C@H](C(=O)Nc2ccc(Br)cc2)[C@@H]2C=C[C@H]1C21CC1 (racemic)
8.21

Note pEC50 for the compound shown: Cc1coc(NC(=O)[C@H]2[C@H](C(=O)NCCCCN3CCCC3)[C@H]3C=C[C@@H]2C32CC2)n1 (racemic)
5.24

Note pEC50 for the compound shown: COc1ccc(NC(=O)C2C(C(=O)NCCC(N)=O)C3C=CC2C32CC2)cc1 (stereo not shown)
7.49

Note pEC50 for the compound shown: N#CCNC(=O)[C@H]1[C@H](C(=O)Nc2ccc(Br)cc2)[C@@H]2C=C[C@H]1C21CC1 (racemic)
8.17

Note pEC50 for the compound shown: "NC(=O)CCNC(=O)[C@H]1[C@H](C(=O)NCc2ccc(Br)cc2F)[C@@H]2C=C[C@H]1C21CC1"
6.84

Note pEC50 for the compound shown: CCn1nc(CCNC(=O)[C@H]2[C@H](C(=O)Nc3ccc(Br)cc3)[C@@H]3C=C[C@H]2C32CC2)cc1C (racemic)
7.62

New cases:
Note pEC50 for the compound shown: O=C(NCCCCN1CCCC1)[C@H]1[C@H](C(=O)Nc2nc3ccc(F)cc3s2)[C@@H]2C=C[C@H]1C21CC1 (racemic)
5.12

Note pEC50 for the compound shown: O=C(NC1CCCC1)[C@H]1[C@H](C(=O)Nc2ccc(Br)cc2)[C@@H]2C=C[C@H]1C21CC1 (racemic)
8.89

Note pEC50 for the compound shown: O=C(Nc1ncc(Br)s1)C1C(C(=O)NC2CCNC2)C2CCC1C21CC1 (stereo not shown)
8.05

Note pEC50 for the compound shown: O=C(NCCC(=O)N1CCCC1)[C@H]1[C@H](C(=O)Nc2ccc(Br)cc2)[C@@H]2C=C[C@H]1C21CC1 (racemic)
7.51

Note pEC50 for the compound shown: CN(C[C@H]1[C@H](C(=O)Nc2ccc(Br)cc2)[C@@H]2C=C[C@H]1C21CC1)C(=O)Cc1ccccc1Cl (racemic)
6.53

Note pEC50 for the compound shown: Cc1cnc(NC(=O)[C@H]2[C@H](C(=O)NCCCCN3CCCC3)[C@H]3C=C[C@@H]2C32CC2)s1 (racemic)
6.33

Note pEC50 for the compound shown: CNCCNC(=O)[C@H]1[C@H](C(=O)Nc2ncc(Br)s2)[C@@H]2C=C[C@H]1C21CC1 (racemic)
7.01
